Where do the numbers come from? From BindingDB's records for doi:10.1016/j.bbrc.2004.06.020.

test: TP_TRANSPORTER: drug resistance (vincristine) in AML-2/D100 cells
pIC50: −log10 of the molar value.
Measured pIC50 of individual entries
quantity.kind: pIC50

smi	data.value
COc1ccc2oc(-c3ccc(OC)c(OC)c3)c(OC)c(=O)c2c1	5.72
COc1ccc2c(=O)cc(-c3ccc(OC)c(OC)c3)oc2c1	5.92
COc1ccc(-c2oc3cc(O)ccc3c(=O)c2O)cc1OC	5.20
COc1cc(OC)c2c(=O)cc(-c3cc(OC)c(OC)c(OC)c3)oc2c1	6.40
COc1ccc(-c2cc(=O)c3ccccc3o2)cc1OC	5.92
COc1ccc(-c2cc(=O)c3c(OC)c(OC)c(OC)cc3o2)cc1OC	5.49
COc1cc(-c2cc(=O)c3c(OC)c(OC)c(OC)cc3o2)cc(OC)c1OC	6.05
O=c1cc(-c2ccc(O)c(O)c2)oc2cc(O)cc(O)c12	4.71
COc1ccc(-c2cc(=O)c3c(OC)cc(OC)cc3o2)cc1	5.85
COc1cc(-c2oc3cc(O)cc(O)c3c(=O)c2O)cc(OC)c1OC	5.49
